Entries annotated with measured melting point

Answered cases to consult:
INSERT INTO assay_data (smiles_input, obs_value) VALUES
  ('CCS(=O)(=O)c1cc(-c2ccc(C(F)(F)F)cc2)ccc1C(=O)/N=c1\sc(C(F)(F)F)nn1C', '140 to 142 °C'),
  ('CCSc1cc(-c2ccc(Cl)cc2)cnc1C(=O)/N=c1\sc(C(F)(F)F)nn1C', '147 to 148 °C'),
  ('CCS(=O)(=O)c1cc(-c2cccc(Cl)c2)cnc1C(=O)/N=c1\sc(C(F)(F)F)nn1C', '184 to 186 °C');

Query :: Entry CCSc1cc(-n2ccc(C(F)(F)F)n2)cnc1C(=O)/N=c1\sc(C(F)(F)C(F)(F)F)nn1C : reported melting point = ?
Result :: 219 to 221 °C

Query :: Recorded melting point for CCSc1cc(-c2ccc(C(F)(F)F)cc2)cnc1C(=O)/N=c1\sc(C(F)(F)C(F)(F)F)nn1C , please?
Result :: 173 to 175 °C
